Where these numbers come from: the supplement of paper PMC4466140

Biological target: ScSla1-D1-D2
Test: SPOT peptide array binding signal intensity (averaged, normalized) (arbitrary units (background-subtracted, floor 0; scale differs between SH3 domains)); higher = stronger binding of the SH3 domain to the peptide
outcome-measure: SPOT peptide array binding signal intensity

Give SPOT peptide array binding signal intensity for each listed item.
1. QPPLPSSAPPIPTSH
2. NLDRSKISLPDFDDE

Return:
["≤ 0", "≤ 0"]

Dear reader, for each entry below, please note its SPOT peptide array binding signal intensity.
1. VPVAPPPPPASLGQS
2. GTIARPLFLVVLFFI

Return:
1: ≤ 0; 2: ≤ 0

Quick request: SPOT peptide array binding signal intensity for each listed item, please.
1. SPLGAPPPPPHKDHL
2. TEVPIPRRPPPPQAA
3. DGNEEKPLLPTRPNK
4. KWVRRPKLMTPLTFS
5. TKFRISLGLPVGAIM

Return:
["≤ 0", "≤ 0", "≤ 0", 735, 333]

Your task in this section: give SPOT peptide array binding signal intensity for each listed record.
1. DLPLPDLPPEPPTEL
2. LLLLFVPDSPYDPAI
3. PPPPPPPPPPPLPQS
4. SSAAPPPPPRRATPE

Return:
["≤ 0", "≤ 0", "≤ 0", 1390]
